# measured.target: T1, hIL-4Rα on cells (human, UniProt P24394 26-825)
# T1 sequence: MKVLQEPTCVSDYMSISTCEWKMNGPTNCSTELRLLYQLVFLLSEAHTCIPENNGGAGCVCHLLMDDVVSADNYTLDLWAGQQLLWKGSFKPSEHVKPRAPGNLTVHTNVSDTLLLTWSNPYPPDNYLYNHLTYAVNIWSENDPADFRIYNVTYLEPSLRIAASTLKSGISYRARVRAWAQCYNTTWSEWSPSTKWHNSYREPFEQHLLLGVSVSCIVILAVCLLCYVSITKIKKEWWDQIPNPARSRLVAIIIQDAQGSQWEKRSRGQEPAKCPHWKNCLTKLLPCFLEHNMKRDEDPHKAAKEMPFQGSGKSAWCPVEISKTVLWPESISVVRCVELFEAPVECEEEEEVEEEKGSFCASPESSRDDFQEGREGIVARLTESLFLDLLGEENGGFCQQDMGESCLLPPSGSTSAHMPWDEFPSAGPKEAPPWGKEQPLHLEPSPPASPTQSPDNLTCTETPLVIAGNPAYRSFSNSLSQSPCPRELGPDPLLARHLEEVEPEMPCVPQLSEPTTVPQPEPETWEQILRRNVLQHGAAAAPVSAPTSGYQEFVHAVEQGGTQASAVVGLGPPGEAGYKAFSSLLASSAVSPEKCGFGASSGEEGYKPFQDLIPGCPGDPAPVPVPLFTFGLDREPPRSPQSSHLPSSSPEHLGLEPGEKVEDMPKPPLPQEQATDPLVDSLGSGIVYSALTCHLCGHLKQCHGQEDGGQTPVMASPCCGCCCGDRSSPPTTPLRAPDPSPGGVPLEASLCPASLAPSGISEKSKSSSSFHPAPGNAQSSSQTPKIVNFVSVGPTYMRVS
# assay.procedure: cell-based or functional assay
binders and their reported Inhibition of IL-4 induced pSTAT6 IC50

# binder, readout.units, Inhibition of IL-4 induced pSTAT6 IC50
data = [
    ("Construct 38 (mAb471) with IgG1 YTE LALA heavy chain constant region (antibody, V domains shown) VH: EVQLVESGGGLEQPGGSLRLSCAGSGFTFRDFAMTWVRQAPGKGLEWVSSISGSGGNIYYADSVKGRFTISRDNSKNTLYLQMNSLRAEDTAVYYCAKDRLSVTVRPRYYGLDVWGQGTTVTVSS VL: DIVMTQSPLSLPVTPGEPASISCRSSQSLLYSIGKNYVDWYLQKSGQSPQLLIYEGNKRASGVPDRFSGSGSGTDFTLKISRVEAEDVGFYYCMQSLTSPYTFGQGTKLEIK", "nM", 0.248),
    ("Construct 31 (mAb443) with IgG1 YTE LALA heavy chain constant region (antibody, V domains shown) VH: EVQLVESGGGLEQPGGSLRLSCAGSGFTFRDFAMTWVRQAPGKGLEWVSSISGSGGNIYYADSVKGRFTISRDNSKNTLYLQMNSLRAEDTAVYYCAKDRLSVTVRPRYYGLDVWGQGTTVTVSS VL: DIVMTQSPLSLPVTPGEPASISCRSSQSLLYSNGYNYLDWYLQKSGQSPQLLIYLGSNRASGVPDRFSGSGSGTDFTLKISRVEAEDVGFYYCMQALQAPYTFGQGTKLEIK", "nM", 0.452),
    ("Construct 15 (mAb423) with IgG1 YTE LALA heavy chain constant region (antibody, V domains shown) VH: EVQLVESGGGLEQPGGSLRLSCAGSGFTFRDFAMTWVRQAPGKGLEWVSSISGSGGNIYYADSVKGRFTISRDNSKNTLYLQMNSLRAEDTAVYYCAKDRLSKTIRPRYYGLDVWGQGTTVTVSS VL: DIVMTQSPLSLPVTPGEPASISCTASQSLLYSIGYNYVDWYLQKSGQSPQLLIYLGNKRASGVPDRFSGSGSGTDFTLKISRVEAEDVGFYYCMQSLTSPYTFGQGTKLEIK", "nM", 0.122),
    ("Construct 24 (mAb432) with IgG1 YTE LALA heavy chain constant region (antibody, V domains shown) VH: EVQLVESGGGLEQPGGSLRLSCAGSGFTFRDFAMTWVRQAPGKGLEWVSSISGSGGNIYYADSVKGRFTISRDNSKNTLYLQMNSLRAEDTAVYYCAKDRLSIAVRPRYYGLDVWGQGTTVTVSS VL: DIVMTQSPLSLPVTPGEPASISCTASQSLLYSIGKNYVDWYLQKSGQSPQLLIYLGNNRATGVPDRFSGSGSGTDFTLKISRVEAEDVGFYYCMQSLTSPYTFGQGTKLEIK", "nM", 0.269),
    ("Construct 13 (mAb422) with IgG1 YTE LALA heavy chain constant region (antibody, V domains shown) VH: EVQLVESGGGLEQPGGSLRLSCAGSGFTFRDFAMTWVRQAPGKGLEWVSSVSGSGGNTYYADSVKGRFTISRDNSKNTLYLQMNSLRAEDTAVYYCAKDRLSVTVRPRYYGLDVWGQGTTVTVSS VL: DIVMTQSPLSLPVTPGEPASISCRSSQSVLYSIGYNYVDWYLQKSGQSPQLLIYLGNKRASGVPDRFSGSGSGTDFTLKISRVEAEDVGFYYCMQSLTSPYTFGQGTKLEIK", "nM", 0.185),
]
